# System: PPARg DBDmut:RXRa IVT, anti-PPARg (DBD mutation: PPARg1 K132A/R137A, NR concentration 270 nM, RXRa partner concentration 90 nM)
# EXPERIMENTAL_PROTOCOL: PBM binding z-score (relative to random genomic background probes); higher = stronger binding; sequences stand for … in GC…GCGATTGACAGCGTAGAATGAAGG
PBM binding z-score vs 0.2: at or above is y, below is n.

Some entries whose results are on file:
- RESIDUES: "GCATATAGGTAATACAAGGTTAAAGTCCGATTGT"
  CLASS_NAME: "y"
- RESIDUES: "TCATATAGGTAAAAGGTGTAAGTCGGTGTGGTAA"
  CLASS_NAME: "y"
- RESIDUES: "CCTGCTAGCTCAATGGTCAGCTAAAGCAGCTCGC"
  CLASS_NAME: "n"
- RESIDUES: "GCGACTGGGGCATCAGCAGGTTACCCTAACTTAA"
  CLASS_NAME: "n"
- RESIDUES: "CCTCGTTGGTCAGGAGGTCACACACCGGATATGA"
  CLASS_NAME: "n"

Could you tell me if the measured PBM binding z-score of `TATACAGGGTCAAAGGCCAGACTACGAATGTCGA` reaches 0.2 or more?
y

Next entry: `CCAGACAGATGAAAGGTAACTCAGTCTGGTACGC`
n

Same for `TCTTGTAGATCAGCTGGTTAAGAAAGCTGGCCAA`
n

How about this sequence: `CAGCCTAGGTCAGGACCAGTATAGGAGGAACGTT`
n

Would you kindly repeat that for `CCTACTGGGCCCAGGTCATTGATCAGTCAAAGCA` ?
n

Quick one: `TCATATAGGTAAAGGTGAAAGTTGAACGATATGA`
y

// same read-out, input: `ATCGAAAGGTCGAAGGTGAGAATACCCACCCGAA`
y

Also `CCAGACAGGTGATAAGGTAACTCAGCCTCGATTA` ?
n

What would you report for `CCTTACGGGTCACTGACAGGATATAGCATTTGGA` ?
y

Same again, this time with `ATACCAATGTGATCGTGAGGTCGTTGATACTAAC`
y

Next: `GCTATTAGTTGAAAGAGCAACCGAATGATTCTCG`
y

Can you handle `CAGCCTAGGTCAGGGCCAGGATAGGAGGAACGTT` next?
n

Same question, `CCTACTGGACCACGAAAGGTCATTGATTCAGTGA` this time
y

Another sequence to look at: `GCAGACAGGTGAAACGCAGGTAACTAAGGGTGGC`
n

Please give the result for `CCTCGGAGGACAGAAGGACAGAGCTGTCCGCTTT` too.
n

Next sequence up: `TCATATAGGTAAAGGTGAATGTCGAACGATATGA`
y

How about this sequence: `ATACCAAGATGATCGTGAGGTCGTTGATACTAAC`
n

Entry to check: `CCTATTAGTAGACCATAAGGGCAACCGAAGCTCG`
n

What would you report for `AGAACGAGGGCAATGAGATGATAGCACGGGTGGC` ?
y

Can you handle `TGAATGAGGTAATAAGATCAGGGAACGTTGCAAA` next?
n

Would you mind doing `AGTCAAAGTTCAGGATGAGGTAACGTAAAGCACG` as well?
y

// repeat for `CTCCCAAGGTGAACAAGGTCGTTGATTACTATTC` and report
n

Try `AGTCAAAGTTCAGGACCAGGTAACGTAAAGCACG` next.
y

Check `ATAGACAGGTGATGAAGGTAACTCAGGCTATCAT` too.
y

// query: `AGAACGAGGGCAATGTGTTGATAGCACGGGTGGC`
y

Do the same for `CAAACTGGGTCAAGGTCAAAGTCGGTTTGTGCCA` please
y

Please give the result for `CAGCCTAGGGCAGGGCCAGTATAGGAGGAACGTT` too.
n

Same question, `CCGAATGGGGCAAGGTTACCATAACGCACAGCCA` this time
n
